Cited source for all entries: ChEMBL document CHEMBL3351557

target: Tumour suppressor p53/oncoprotein Mdm2 (Homo sapiens, UniProt Q00987); assay: Inhibition of human MDM2 (1-188 aa) -p53 (1-83 aa) interaction expressed in Escherichia coli after 18 hrs by HTRF assay
Sequence (P04637 whole entry, the tested form may be a part): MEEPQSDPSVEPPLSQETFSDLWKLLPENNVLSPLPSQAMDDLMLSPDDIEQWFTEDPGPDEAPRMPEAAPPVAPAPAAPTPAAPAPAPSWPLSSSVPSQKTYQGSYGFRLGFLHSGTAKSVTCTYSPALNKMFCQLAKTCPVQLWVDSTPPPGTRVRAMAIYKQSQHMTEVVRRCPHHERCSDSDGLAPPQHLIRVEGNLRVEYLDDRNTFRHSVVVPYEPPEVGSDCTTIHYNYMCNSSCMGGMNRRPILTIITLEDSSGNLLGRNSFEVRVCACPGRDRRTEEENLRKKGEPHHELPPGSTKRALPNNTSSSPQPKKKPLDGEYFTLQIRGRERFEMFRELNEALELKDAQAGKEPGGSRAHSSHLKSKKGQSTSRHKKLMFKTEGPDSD
Sequence (Q00987 whole entry, the tested form may be a part): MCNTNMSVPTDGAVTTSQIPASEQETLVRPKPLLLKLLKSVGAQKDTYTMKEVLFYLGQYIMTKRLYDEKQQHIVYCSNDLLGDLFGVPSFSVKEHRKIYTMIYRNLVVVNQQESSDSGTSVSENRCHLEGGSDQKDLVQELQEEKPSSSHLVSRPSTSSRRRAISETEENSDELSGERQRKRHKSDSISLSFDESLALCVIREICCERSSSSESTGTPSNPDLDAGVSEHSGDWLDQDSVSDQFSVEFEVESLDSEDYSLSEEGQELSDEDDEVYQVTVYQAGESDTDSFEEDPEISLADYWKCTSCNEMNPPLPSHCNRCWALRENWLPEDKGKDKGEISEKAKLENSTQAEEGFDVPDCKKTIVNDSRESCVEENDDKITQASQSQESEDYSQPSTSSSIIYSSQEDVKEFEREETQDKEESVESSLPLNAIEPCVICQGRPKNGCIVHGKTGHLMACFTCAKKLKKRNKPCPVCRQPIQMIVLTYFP
Listed below: pIC50 values for each entry.
Expect pIC50 as a plain number equal to -log10 of the molar concentration.

Completed entries (count: 2):
{"compound": "CC[C@@H](c1ncccc1C)N1C(=O)[C@@](C)(CC(=O)O)C[C@H](c2cccc(Cl)c2)[C@H]1c1ccc(Cl)cc1", "pIC50": 8.30}
{"compound": "C[C@]1(CC(=O)O)C[C@H](c2cccc(Cl)c2)[C@@H](c2ccc(Cl)cc2)N(c2ccccn2)C1=O", "pIC50": 7.89}

Record CC[C@@H](c1ccc(C)cn1)N1C(=O)[C@@](C)(CC(=O)O)CC(c2cccc(Cl)c2)[C@H]1c1ccc(Cl)cc1 (single isomer, unassigned) has Tumour suppressor p53/oncoprotein Mdm2 (Homo sapiens, UniProt Q00987) pIC50 equal to 8.15

Field pIC50 (Tumour suppressor p53/oncoprotein Mdm2 (Homo sapiens, UniProt Q00987)), entry "C[C@@H](c1ccccn1)N1C(=O)[C@@](C)(CC(=O)O)C[C@H](c2cccc(Cl)c2)[C@H]1c1ccc(Cl)cc1" : 8.00

Test item "CC[C@@H](c1cnco1)N1C(=O)[C@@](C)(CC(=O)O)C[C@H](c2cccc(Cl)c2)[C@H]1c1ccc(Cl)cc1" ; Tumour suppressor p53/oncoprotein Mdm2 (Homo sapiens, UniProt Q00987); reported pIC50 was 8.10

pIC50 value, target or system Tumour suppressor p53/oncoprotein Mdm2 (Homo sapiens, UniProt Q00987), for "C[C@]1(CC(=O)O)C[C@H](c2cccc(Cl)c2)[C@@H](c2ccc(Cl)cc2)N(c2ccccc2)C1=O" : 8.40

# value of pIC50, Tumour suppressor p53/oncoprotein Mdm2 (Homo sapiens, UniProt Q00987), item "CC[C@@H](c1cc(C)ccn1)N1C(=O)[C@@](C)(CC(=O)O)C[C@H](c2cccc(Cl)c2)[C@H]1c1ccc(Cl)cc1" = 8.22
